- System: replication-induced senescent mouse newborn dermal fibroblasts (NBF)
- Method: relative cell viability of senescent cells (fraction); higher = less killing of senescent cells
- Test parameters: 1 µM; 3 days
The label is true (1) for relative cell viability below 1 and false (0) for relative cell viability equal to or exceeding 1.

Look over these answered cases.
INSERT INTO measurements (compound, assigned_category) VALUES
  ('CCC(C)(C)C(=O)O[C@H]1C[C@@H](C)C=C2C=C[C@H](C)[C@H](CC[C@@H]3C[C@@H](O)CC(=O)O3)[C@H]21 [Simvastatin]', 'true (1)'),
  ('COC(=O)N[C@H](C(=O)N1CCC[C@H]1c1ncc(-c2ccc(-c3ccc(-c4cnc([C@@H]5CCCN5C(=O)[C@@H](NC(=O)OC)C(C)C)[nH]4)cc3)cc2)[nH]1)C(C)C', 'true (1)'),
  ('[I-].[K+] [Potassium Iodide]', 'true (1)'),
  ('COc1cc2c(Oc3ccc4[nH]c(C)cc4c3F)ncnc2cc1OCCCN1CCCC1 [Cediranib (AZD2171)]', 'true (1)'),
  ('C[C@]1(O)C[C@@H](c2nc(-c3ccc4ccc(-c5ccccc5)nc4c3)c3c(N)nccn32)C1 [Linsitinib (OSI-906)]', 'true (1)');

Q: Would you kindly verify if relative cell viability of COc1ccc(-c2nc3cc(C4=NNC(=O)CC4C)ccc3[nH]2)cc1 (stereo unspecified) [Pimobendan] is strictly less than 1?
Result: true (1)

----------
# Lookup of reported relative cell viability keyed by entry
- Test system: replication-induced senescent mouse newborn dermal fibroblasts (NBF)
- Method: relative cell viability of senescent cells (fraction); higher = less killing of senescent cells
- Test parameters: 1 µM; 3 days
Where a name gives a salt, the structure may show the parent alone.
Answer with a number only.

INSERT INTO measurements (compound, result_number) VALUES
  ('COCC[n+]1c2c(n(Cc3cnccn3)c1C)C(=O)c1ccccc1C2=O [YM155 (Sepantronium Bromide)]', 0.187),
  ('CS(=O)(=O)N1CCN(Cc2cc3nc(-c4cccc5[nH]ncc45)nc(N4CCOCC4)c3s2)CC1 [Pictilisib (GDC-0941)]', 0.681);

Memo: CNC(=O)c1ccc2cc([C@@]3(O)CCn4cncc43)ccc2c1 [TAK-700 (Orteronel)] , reported relative cell viability: 0.282

Consider CC(C)Cn1cnc2c(N)nc3ccccc3c21 [Imiquimod] . Its measured relative cell viability is 0.273

Entry C[C@]12CC[C@@H]3c4ccc(O)cc4C[C@@H](CCCCCCCCC[S+]([O-])CCCC(F)(F)C(F)(F)F)[C@H]3[C@@H]1CC[C@@H]2O (stereo partly drawn) [Fulvestrant] — recorded relative cell viability = 0.971

Measured relative cell viability, C[C@H](Cc1cc2c(c(C(N)=O)c1)N(CCCO)CC2)NCCOc1ccccc1OCC(F)(F)F [Silodosin] : 0.806

compound O=C(O)/C=C/c1ccc(Cn2ccnc2)cc1 [Ozagrel] , relative cell viability observed: 1.02

# relative cell viability (compound: CC(C)[C@H](N)C(=O)OCCOCn1cnc2c(=O)nc(N)[nH]c21 [Valaciclovir HCl] ) is 0.909

----------
Each item that follows carries a reported relative cell viability.
- Tested on: replication-induced senescent mouse newborn dermal fibroblasts (NBF)
- Method: relative cell viability of senescent cells (fraction); higher = less killing of senescent cells
- Test parameters: 1 µM; 3 days
# answer = number (no unit)

INSERT INTO measurements (compound, result_number) VALUES
  ('CCCc1nc2c(C)cc(-c3nc4ccccc4n3C)cc2n1Cc1ccc(-c2ccccc2C(=O)O)cc1', 1.15);

Consider the record given below.
relative cell viability for COc1ccccc1OCCNCC(O)COc1cccc2[nH]c3ccccc3c12 (stereo not drawn) is 1.14
